biological target: T1, human IL-6 (human, UniProt P05231 30-212); experiment: SPR Biacore, supernatant Ab on Protein A chip, 37 C
T1 construct: IL-6 flowed over captured antibodies
T1 sequence (P05231 30-212 limits assumed): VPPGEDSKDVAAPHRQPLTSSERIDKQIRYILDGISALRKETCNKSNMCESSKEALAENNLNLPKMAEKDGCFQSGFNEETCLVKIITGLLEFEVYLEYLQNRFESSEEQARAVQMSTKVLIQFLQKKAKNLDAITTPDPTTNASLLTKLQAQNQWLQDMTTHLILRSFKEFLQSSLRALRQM
Measure: koff (s⁻¹)
Number only, in s⁻¹; omit the unit.

Request: Give the measured koff of anti-IL-6 antibody, heavy chain T65E, G66D / light chain M32L, M50D, N52S, M88Q (antibody, IgG1, V domains shown, Full IgG1 (Expi293); VL = variant III) VH: EVQLVESGGGLVQPGGSLRLSCAASGFTFSPFAMSWVRQAPGKGLEWVAKISPGGSWTYYSDTVEDRFTFSLDTSKSTAYLQMNSLRAEDTAVYYCARQLWGYYALDIWGQGTLVTVSS VL: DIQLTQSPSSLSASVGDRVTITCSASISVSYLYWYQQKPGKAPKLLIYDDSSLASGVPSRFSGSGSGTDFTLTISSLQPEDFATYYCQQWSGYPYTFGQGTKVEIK .
Result: 0.000474

Request: Give the measured koff of anti-IL-6 antibody, heavy chain T65W, G66D / light chain M32L, M50D, N52S, M88Q (antibody, IgG1, V domains shown, Full IgG1 (Expi293); VL = variant III) VH: EVQLVESGGGLVQPGGSLRLSCAASGFTFSPFAMSWVRQAPGKGLEWVAKISPGGSWTYYSDTVWDRFTFSLDTSKSTAYLQMNSLRAEDTAVYYCARQLWGYYALDIWGQGTLVTVSS VL: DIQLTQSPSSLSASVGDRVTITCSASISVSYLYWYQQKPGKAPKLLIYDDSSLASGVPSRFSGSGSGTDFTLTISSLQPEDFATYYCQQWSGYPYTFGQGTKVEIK .
Result: 0.000384

Every entry's value here was drawn from patent US20240209076A1.
